What GI50 was measured for each of the following?
System: XF498
Test: NCI tumour cell line growth inhibition, 48 h
Calls of active or inactive are those of the source. No stated cut-off is given here; in the data, active = GI50 up to about 1.1 µM and inactive = higher.

Could you tell me GI50 for each of these molecules? They are listed below.
1. Cc1ccc(C2=Nc3ccccc3[S+]([O-])C(c3ccc4c(c3)OCO4)C2)cc1 (centres undefined)
2. CCCNCCCCC(NC(C)=O)C(=O)NCc1ccccc1 (centres undefined)
3. COc1cc2c(cc1OC)C1Cc3cc(OC)c(OC)cc3N1CC2 (centres undefined)
4. CC(C)CC(CNC(Cc1ccc(Cl)cc1)C(N)=O)NC(=O)C(Cc1c[nH]cn1)NC(=O)CNC(=O)C(NC(=O)C(C)NC(=O)C(Cc1c[nH]c2ccccc12)NC(=O)C(CCC(=O)O)NC(=O)C(N)Cc1ccccc1)C(C)C (centres undefined)

A)
1: 16.5 µM (inactive); 2: > 100 µM (inactive); 3: 18.5 µM (inactive); 4: > 133 µM (inactive)

----------
Test system: CAKI-1
Assay: NCI tumour cell line growth inhibition, 48 h
Active and inactive are the calls of the source. Rule as the data show it: active = GI50 up to about 1.1 µM and inactive = higher.
What GI50 was measured for each of the following?

1. CC(C)OC(=O)c1ccc(CCC2=CC(=O)C(Br)=CC2=O)cc1 : 20.6 µM (inactive)
2. CC(=O)O[C@@H]1C2=C(C)C=C(O2)[C@H]2O[C@]2(C)C[C@H]2C=C(C(=O)O2)[C@H](OC(C)=O)CC1[C@@]1(C)CO1 (some centres undefined) : 24.2 µM (inactive)
3. O=C(Cc1nc2ccccc2s1)C(=O)Nc1ccc(Cl)cc1 : > 100 µM (inactive)

Q) Given the molecule N#CC(c1ccccc1)N1CCCN(C(C#N)c2ccccc2)C1c1ccccc1O (centres undefined) , write its reported GI50.
A) > 100 µM (inactive)

----------
What GI50 was measured for each of the following?
Tested on: DU-145
Experiment: NCI tumour cell line growth inhibition, 48 h
Active and inactive are the calls of the source. Cut-off read from the data, not from the text of the source: active = GI50 up to about 1.1 µM and inactive = higher.

In the examples that follow, each entry is paired with its recorded GI50.
1. c1ccc(P(CCP(CCP(c2ccccc2)c2ccccc2)c2ccccc2)CCP(c2ccccc2)c2ccccc2)cc1 (stereo not given) : > 9.16 µM (inactive)
2. c1ccc2c(Cc3[nH]c4ccccc4c3Cc3c[nH]c4ccccc34)c[nH]c2c1 : 1.8 µM (inactive)
3. S=C(N1CCN(c2cccc(Cl)c2)CC1)N1CCN(c2cccc(Cl)c2)CC1 : 30.3 µM (inactive)
4. CCOC(=O)C(NC(=O)CC)(N1CCN(c2cc3c(cc2F)c(=O)c(C(=O)O)cn3C2CC2)CC1)C(F)(F)F (stereo not given) : > 100 µM (inactive)

Attention now shifts to the item below.
Q) Given the compound Cc1nc2ccc(S(=O)(=O)Nc3ccccc3)cc2c(=O)n1NC(=O)CNc1ccccc1 , write its reported GI50.
A) > 100 µM (inactive)

----------
Tested on: SF-539
Test: NCI tumour cell line growth inhibition, 48 h
Active and inactive are the calls of the source. Rule as the data show it: active = GI50 up to about 1.1 µM and inactive = higher.
Pick from y = active, n = inactive when you respond.

See these solved cases before continuing.
1) CN(C)CCn1c2c3ccccc3ccc2c2oc(=O)c3ccccc3c21 : n
2) O=[N+]([O-])C(=C/c1cccs1)/C(=C\c1cccs1)[N+](=O)[O-] : y

Q) Per the assay record, what outcome was assigned to N#CCc1ccc(C(C#N)/C(CCCC(=O)Nc2cccc([N+](=O)[O-])c2)=N\NC(=O)NN)cc1 (stereo not given) ?
A) n

Q) Per the assay record, what outcome was assigned to CCOC(=O)C(C(=O)Cc1ccccc1)c1ccccc1 (stereo not given) ?
A) n

Q) Per the assay record, what outcome was assigned to CCc1ccc2nccc(NCCCN(C)C)c2c1[N+](=O)[O-] ?
A) n

Q) Per the assay record, what outcome was assigned to O=C1CCCN1CCC/N=c1/cc2n(-c3ccc(Cl)cc3)c3ccccc3nc-2cc1Nc1ccc(Cl)cc1 ?
A) n

Q) Per the assay record, what outcome was assigned to O=C1/C(=C\Oc2ccc(F)cc2)N2CCC1CC2 ?
A) n

Q) Per the assay record, what outcome was assigned to COc1cc2c(cc1OC)CCc1cc(OC)c(OC)cc1CC2 ?
A) n

Q) Per the assay record, what outcome was assigned to CCOC(=O)N1N=NC2C3OC(C[C@@]3(C#N)OC(C)=O)[C@H]21 (stereo not given in full) ?
A) n

Q) Per the assay record, what outcome was assigned to N=C(N)NS(=O)(=O)c1ccc(NC(=O)c2c3ccccc3nc3ccccc23)cc1 ?
A) n

Q) Per the assay record, what outcome was assigned to C/C(CC(=O)Nc1ccc([N+](=O)[O-])cc1)=N\NC(N)=O ?
A) n

Q) Per the assay record, what outcome was assigned to O=c1[nH]nc(-c2ccccc2)n1/N=C/c1ccccc1O ?
A) n
